Source listed as ChEMBL document CHEMBL4184121.

# targetOfAssay: Subtilisin Carlsberg (Bacillus licheniformis, UniProt P00780)
# Sequence (P00780 whole entry): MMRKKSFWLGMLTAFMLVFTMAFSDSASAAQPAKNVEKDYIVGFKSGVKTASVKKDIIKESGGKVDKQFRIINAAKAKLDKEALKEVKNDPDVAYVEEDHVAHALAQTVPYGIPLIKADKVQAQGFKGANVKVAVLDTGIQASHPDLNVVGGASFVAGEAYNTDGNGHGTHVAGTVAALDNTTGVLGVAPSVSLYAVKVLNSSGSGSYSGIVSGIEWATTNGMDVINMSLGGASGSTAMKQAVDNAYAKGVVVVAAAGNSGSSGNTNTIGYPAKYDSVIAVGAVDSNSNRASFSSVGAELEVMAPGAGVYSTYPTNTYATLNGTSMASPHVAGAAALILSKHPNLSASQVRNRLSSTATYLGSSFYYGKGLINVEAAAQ
quantityKind: IC50 (µM)
Give just the numeric value; µM need not be written.

Input line: So what does the record say about IC50 for `C=C(C)[C@@H]1CC[C@]2(C(=O)O)CC[C@]3(C)[C@H](CC[C@@H]4[C@@]5(C)CC[C@H](OC(=O)CCC)C(C)(C)[C@@H]5CC[C@]43C)[C@@H]12` ?
Output line: 93
